System: HepG2 human hepatocellular carcinoma cells
test: In vitro HepG2 cytotoxicity (CellTiter 96)
protocol conditions: Homo sapiens, HepG2, 24 h, read-out: HepG2 IC50, 24 h incubation; * limit = highest evaluated concentration (precipitation in medium); ** over the 1000 µM limit
IC50 values, listed per item

State its IC50 for this molecule: "CCCC(=O)Nc1nccnc1C(N)=O" > 1000 µM

State its IC50 for this molecule: "CN(C)C(=O)c1nccnc1NC(=O)c1ccc(Cl)cc1" > 1000 µM

State its IC50 for this molecule: "CCCCCCC(=O)Nc1nccnc1C(N)=O" > 250 µM

State its IC50 for this molecule: "COc1ccc(C(=O)Nc2nccnc2C(N)=O)cc1" > 250 µM

State its IC50 for this molecule: "NC(=O)c1nccnc1NC(=O)c1cccc(Br)c1" > 5 µM

Continuing:
State its IC50 for this molecule: "COc1cccc(C(=O)Nc2nccnc2C(N)=O)c1" > 100 µM

State its IC50 for this molecule: "CNC(=O)c1nccnc1NC(=O)c1ccc(Br)cc1" > 50 µM

----------
MIC values, listed per item
Tested on: Candida parapsilosis CCM 8260 (ATCC 22019)
test: Antifungal microdilution broth (EUCAST), CP
Type: cell-based
protocol conditions: Lodderomyces parapsilosis; read after 24 h; read-out: CP MIC

State its MIC for this compound: "Cc1ccc(C(=O)Nc2nccnc2C(N)=O)cc1" > 500 µM

Continuing:
State its MIC for this compound: "NC(=O)c1nccnc1NC(=O)c1cccc(F)c1" > 250 µM

State its MIC for this compound: "CCCCCCCC(=O)Nc1nccnc1C(N)=O" > 250 µM

State its MIC for this compound: "NC(=O)c1nccnc1NC(=O)c1ccccc1C(F)(F)F" > 500 µM

State its MIC for this compound: "CN(C)C(=O)c1nccnc1NC(=O)c1ccc(Cl)cc1" > 500 µM

State its MIC for this compound: "COc1ccccc1C(=O)Nc1nccnc1C(N)=O" > 500 µM

State its MIC for this compound: COC(=O)c1nccnc1NC(=O)c1ccc(Br)cc1 [Compound 18e] > 500 µM

State its MIC for this compound: "O=c1[nH]c(-c2ccc(Br)cc2)nc2nccnc12" > 125 µM

State its MIC for this compound: "CC(C)(C)c1ccc(C(=O)Nc2nccnc2C(N)=O)cc1" > 125 µM

State its MIC for this compound: "NC(=O)c1nccnc1NC(=O)CCc1ccccc1" > 500 µM

State its MIC for this compound: "COC(=O)c1nccnc1NC(=O)c1ccc(C)cc1" > 500 µM

State its MIC for this compound: "NC(=O)c1nccnc1NC(=O)c1ccccc1Cl" > 500 µM

State its MIC for this compound: "Cc1ccc(-c2nc3nccnc3c(=O)[nH]2)cc1" > 125 µM

State its MIC for this compound: "NC(=O)c1nccnc1NC(=O)C1CCCCC1" > 500 µM

State its MIC for this compound: "CCCCCC(=O)Nc1nccnc1C(N)=O" > 500 µM

State its MIC for this compound: "CNC(=O)c1nccnc1NC(=O)c1ccc(C)cc1" > 500 µM

----------
Test system: HepG2 human hepatocellular carcinoma cells
test: In vitro HepG2 cytotoxicity (CellTiter 96)
protocol conditions: Homo sapiens, HepG2, 24 h, read-out: HepG2 IC50, 24 h incubation; * limit = highest evaluated concentration (precipitation in medium); ** over the 1000 µM limit
pIC50 values, listed per item
Scale note: pIC50 = -log10(concentration in M).

Fill: pIC50 (HepG2 human hepatocellular carcinoma cells) for this molecule CC(C)(C)c1ccc(C(=O)Nc2nccnc2C(N)=O)cc1 [Compound 6] 3.94

// below: pIC50 requested for another molecule
Fill: pIC50 (HepG2 human hepatocellular carcinoma cells) for this molecule CCCCCC(=O)Nc1nccnc1C(N)=O [Compound 30] 3.25

----------
Test system: Klebsiella pneumoniae CCM 4415 (ATCC 10031)
test: Antibacterial microdilution broth (EUCAST), KP
protocol conditions: read after 24 h
quantity name: KP MIC

Here is how some molecules turned out for KP MIC.
State its KP MIC for this molecule: COC(=O)c1nccnc1NC(=O)c1cccc(Br)c1 [Compound 17e] > 500 µM

State its KP MIC for this molecule: "COC(=O)c1nccnc1NC(=O)c1ccc(C)cc1" > 500 µM

State its KP MIC for this molecule: "NC(=O)c1nccnc1NC(=O)CCc1ccccc1" > 500 µM

State its KP MIC for this molecule: "COc1cccc(C(=O)Nc2nccnc2C(N)=O)c1" > 500 µM

State its KP MIC for this molecule: "CCCCCCCC(=O)Nc1nccnc1C(N)=O" > 250 µM

// below: KP MIC requested for another molecule
State its KP MIC for this molecule: "CNC(=O)c1nccnc1NC(=O)c1ccc(C)cc1" > 500 µM

----------
Tested on: Staphylococcus aureus subsp. aureus methicillin-resistant (MRSA) CCM 4750 (ATCC 43300)
test: Antibacterial microdilution broth (EUCAST), MRSA
Format: cell-based
protocol conditions: Staphylococcus aureus; read after 24 h; read-out: MRSA MIC
quantity name: MIC

Here is how some compounds turned out for MIC.
Fill: MIC (Staphylococcus aureus subsp. aureus methicillin-resistant (MRSA) CCM 4750 (ATCC 43300)) for this compound "NC(=O)c1nccnc1NC(=O)C12CC3CC(CC(C3)C1)C2" > 500 µM

Fill: MIC (Staphylococcus aureus subsp. aureus methicillin-resistant (MRSA) CCM 4750 (ATCC 43300)) for this compound "CNC(=O)c1nccnc1NC(=O)c1ccc(Cl)cc1" > 125 µM

Fill: MIC (Staphylococcus aureus subsp. aureus methicillin-resistant (MRSA) CCM 4750 (ATCC 43300)) for this compound "Cc1cccc(C(=O)Nc2nccnc2C(N)=O)c1" > 500 µM

Fill: MIC (Staphylococcus aureus subsp. aureus methicillin-resistant (MRSA) CCM 4750 (ATCC 43300)) for this compound "O=c1[nH]c(-c2ccccc2)nc2nccnc12" > 125 µM

Fill: MIC (Staphylococcus aureus subsp. aureus methicillin-resistant (MRSA) CCM 4750 (ATCC 43300)) for this compound "Cc1ccc(C(=O)Nc2nccnc2C(N)=O)cc1" > 500 µM

Fill: MIC (Staphylococcus aureus subsp. aureus methicillin-resistant (MRSA) CCM 4750 (ATCC 43300)) for this compound COC(=O)c1nccnc1NC(=O)C1CCCCC1 [Compound 27e] > 500 µM

Fill: MIC (Staphylococcus aureus subsp. aureus methicillin-resistant (MRSA) CCM 4750 (ATCC 43300)) for this compound "NC(=O)c1nccnc1NC(=O)c1ccc(F)cc1" > 500 µM

Fill: MIC (Staphylococcus aureus subsp. aureus methicillin-resistant (MRSA) CCM 4750 (ATCC 43300)) for this compound "NC(=O)c1nccnc1NC(=O)c1cccc(F)c1" > 250 µM

Fill: MIC (Staphylococcus aureus subsp. aureus methicillin-resistant (MRSA) CCM 4750 (ATCC 43300)) for this compound "CNC(=O)c1nccnc1NC(=O)c1ccc(C)cc1" > 500 µM

Fill: MIC (Staphylococcus aureus subsp. aureus methicillin-resistant (MRSA) CCM 4750 (ATCC 43300)) for this compound "O=c1[nH]c(-c2ccc(F)cc2)nc2nccnc12" > 125 µM

// below: MIC requested for another compound
Fill: MIC (Staphylococcus aureus subsp. aureus methicillin-resistant (MRSA) CCM 4750 (ATCC 43300)) for this compound "CNC(=O)c1nccnc1NC(=O)c1ccc(Br)cc1" > 125 µM

----------
KP MIC values, listed per item
Test system: Klebsiella pneumoniae CCM 4415 (ATCC 10031)
test: Antibacterial microdilution broth (EUCAST), KP
protocol conditions: read after 24 h

Here is how some compounds turned out for KP MIC.
Fill: KP MIC (Klebsiella pneumoniae CCM 4415 (ATCC 10031)) for this compound Cc1cccc(C(=O)Nc2nccnc2C(N)=O)c1 [Compound 3] > 500 µM

Fill: KP MIC (Klebsiella pneumoniae CCM 4415 (ATCC 10031)) for this compound NC(=O)c1nccnc1NC(=O)c1cccc(F)c1 [Compound 11] > 250 µM

Fill: KP MIC (Klebsiella pneumoniae CCM 4415 (ATCC 10031)) for this compound NC(=O)c1nccnc1NC(=O)c1ccccc1 [Compound 1] > 500 µM

Fill: KP MIC (Klebsiella pneumoniae CCM 4415 (ATCC 10031)) for this compound NC(=O)c1nccnc1NC(=O)c1ccccc1Br [Compound 16] > 500 µM

Continuing:
Fill: KP MIC (Klebsiella pneumoniae CCM 4415 (ATCC 10031)) for this compound COC(=O)c1nccnc1NC(=O)c1ccccc1Br [Compound 16e] > 500 µM

----------
Tested on: HepG2 human hepatocellular carcinoma cells
test: In vitro HepG2 cytotoxicity (CellTiter 96)
protocol conditions: Homo sapiens, HepG2, 24 h, read-out: HepG2 IC50, 24 h incubation; * limit = highest evaluated concentration (precipitation in medium); ** over the 1000 µM limit
quantity name: IC50

State its IC50 for this molecule: "NC(=O)c1nccnc1NC(=O)c1ccccc1O" > 250 µM

State its IC50 for this molecule: "NC(=O)c1nccnc1NC(=O)c1cc(Cl)cc(Cl)c1" > 250 µM

State its IC50 for this molecule: "COc1ccccc1C(=O)Nc1nccnc1C(N)=O" > 500 µM

State its IC50 for this molecule: "O=c1[nH]c(-c2ccc(Cl)cc2)nc2nccnc12" > 250 µM

// below: IC50 requested for another molecule
State its IC50 for this molecule: O=C(NC1Cc2ccccc2C1)c1nccnc1NC(=O)C1CCCCC1 [Compound 38, reference compound] 19.6 µM
